All values here come from patent US20200239573A1.

- TARGET OR TEST SYSTEM: T1, recombinant human PD-1 Fc chimera (human, UniProt Q15116 25-167)
- T1 construct: Bought protein; also called human PD-1-huFc; huPD-1-Fc; not shown: human Fc
- T1 sequence (Q15116 25-167 limits assumed, change not shown): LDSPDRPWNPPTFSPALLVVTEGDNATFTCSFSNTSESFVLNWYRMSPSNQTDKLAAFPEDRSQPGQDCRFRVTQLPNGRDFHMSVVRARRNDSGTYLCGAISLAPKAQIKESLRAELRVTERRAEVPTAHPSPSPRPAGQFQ
- ASSAY: SPR Biacore T200, PD-1-huFc amine-coupled, single cycle kinetics
ASSAY READOUT: pKd
pKd here is simply -log10 of the concentration when that concentration is written in mol/L.

Give its pKd value. Item: Humabody® 1.41 (VHH, human VH single domain antibody) VHH: QVQLVESGGGLVKPGGSLRLSCAASGFTFSDNSMTWMRQAPGKGLEWVSYISSGGGVIFYADSVKGRFTISRDNAKNSLYLQMNSLRADDTAVYYCAREAPLRLGESPHDAFDIWGQGTMVTVSS 10.26

What does the data say about its pKd? Entry: Humabody® 1.56 (VHH, human VH single domain antibody) VHH: QVQLVESGGGLVKPGGSLRLSCAASGFTFSDNSMTWMRQAPGKGLEWVSYISSGGAVKFYADSVKGRFTISRDNAKNSLYLQMNSLRADDTAVYYCAREAPLRLGESPHDAFDILGQGTMVTVSS 10.45

Name the recorded pKd for Humabody® 1.55 (VHH, human VH single domain antibody) VHH: QVQLVESGGGLVKPGGSLRLSCAASGFTFSDNSMTWMRQAPGKGLEWVSYISSGGGVKFYADSVKGRFTISRDNAKNSLYLQMNSLRADDTAVYYCAREAPLRLGESPHDAFDISGQGTMVTVSS . 10.44

// lookup pKd for Humabody® 1.49 (VHH, human VH single domain antibody) VHH: QVQLVESGGGLVKPGGSLRLSCAASGFTFSDSSMSWMRQAPGKGLEWVSYISTGGGVKFYADSVKGRFTISRDNAKNSLYLQMNSLRADDTAVYYCAREAPLRLGESPHDAFDIWGQGTMVTVSS 9.96
